Below, each of the compounds is paired with its reported % (viability) at 10 μM value.
# Test system: human cancer line HCT116 (colorectal carcinoma)
# method-notes: Cytotoxic activity on HCT116, 72 hours incubation
# Assay type: cell-based
# condition-parameters: HCT116, 10 μM

{"columns": ["compound", "test-system", "% (viability) at 10 μM"],
 "data": [
  ["c1ccc2c(c1)OCCC2c1ccc2ccccc2c1 (stereo not drawn)", "human cancer line HCT116 (colorectal carcinoma)", "33%"],
  ["CC(=O)N[C@@H]1CC[C@H](c2ccc(C(=O)NC3OC(COC(C)=O)C(OC(C)=O)C(OC(C)=O)C3OC(C)=O)cc2)c2ccccc21 (stereo in doubt) [VM060-cis]", "human cancer line HCT116 (colorectal carcinoma)", "10 μM: 15% (viability)"],
  ["COc1ccc2c(c1)CCCC2c1ccc(Cl)c(Cl)c1 (stereo not drawn)", "human cancer line HCT116 (colorectal carcinoma)", "10 μM: 40% (viability)"],
  ["CC(=O)NC1CCC(c2ccc(Br)cc2)c2ccccc21 (mixture of isomers)", "human cancer line HCT116 (colorectal carcinoma)", "10 μM: 33% (viability)"],
  ["c1ccc2c(c1)CCCC2c1ccc2[nH]ccc2c1 (stereo not drawn)", "human cancer line HCT116 (colorectal carcinoma)", "33%"],
  ["CC(=O)NC1CCC(c2cccc(I)c2)c2ccccc21 (mixture of isomers)", "human cancer line HCT116 (colorectal carcinoma)", "10 μM: 33% (viability)"]
]}
